# Test system: NCI-H1648
# Assay method text: relative viability (nuclei count vs DMSO), 5 days (fraction); higher = more cells survive
# Particulars: first compound 0.1581 µM
Just a reminder that ties go to condition not met: only relative viability strictly below 0.5 counts as condition met.

For orientation, consider the following solved cases.
compound="Nc1ccn([C@@H]2O[C@H](CO)[C@@H](O)[C@@H]2O)c(=O)n1 [Cytarabine] + COc1cccc2cc(-c3nc([C@H]4CC[C@H](C(=O)O)CC4)n4ncnc(N)c34)[nH]c12 [OSI-027] (partner 0.5 µM)" class="condition met"
compound="Nc1ccn([C@@H]2O[C@H](CO)[C@@H](O)[C@@H]2O)c(=O)n1 [Cytarabine] + O=C(c1cc(Cc2n[nH]c(=O)c3ccccc23)ccc1F)N1CCN(C(=O)C2CC2)CC1 [Olaparib] (partner 8 µM)" class="condition met"
compound="Nc1ccn([C@@H]2O[C@H](CO)[C@@H](O)[C@@H]2O)c(=O)n1 [Cytarabine] + CC(=O)Nc1cccc(-n2c(=O)n(C3CC3)c(=O)c3c(Nc4ccc(I)cc4F)n(C)c(=O)c(C)c32)c1 [Trametinib] (partner 0.02 µM)" class="condition met"

Pending compound:
Query: For this compound, is relative viability lower than 0.5? Nc1ccn([C@@H]2O[C@H](CO)[C@@H](O)[C@@H]2O)c(=O)n1 [Cytarabine] + Cc1cc(Nc2cc(N3CCN(C)CC3)nc(Sc3ccc(NC(=O)C4CC4)cc3)n2)n[nH]1 [Tozasertib] (partner 0.1 µM)
Result: condition met

----------
# Test system: LU99A
# Assay method text: relative viability (nuclei count vs DMSO), 5 days (fraction); higher = more cells survive
# Particulars: first compound 5 µM
Readout kind: relative viability
One number for each entry.

compound="O=C(O)CCCCC(CCSCc1ccccc1)SCc1ccccc1 (stereo not drawn) [CPI-613] + CC(=O)Nc1cccc(-n2c(=O)n(C3CC3)c(=O)c3c(Nc4ccc(I)cc4F)n(C)c(=O)c(C)c32)c1 [Trametinib] (partner 0.02 µM)" readout_kind="relative viability" numeric_value=0.51
compound="O=C(O)CCCCC(CCSCc1ccccc1)SCc1ccccc1 (stereo not drawn) [CPI-613] + CS(=O)(=O)N1CCN(Cc2cc3nc(-c4cccc5[nH]ncc45)nc(N4CCOCC4)c3s2)CC1 [Pictilisib] (partner 1 µM)" readout_kind="relative viability" numeric_value=0.289

Now examine the next entry.
Query: Suppose we examine the compound O=C(O)CCCCC(CCSCc1ccccc1)SCc1ccccc1 (stereo not drawn) [CPI-613] + CS(=O)(=O)CCNCc1ccc(-c2ccc3ncnc(Nc4ccc(OCc5cccc(F)c5)c(Cl)c4)c3c2)o1 [Lapatinib] (partner 2 µM) ; what relative viability value has been reported?
Result: 0.937

----------
# System: NCI-H1395
# Assay method text: relative viability (nuclei count vs DMSO), 5 days (fraction); higher = more cells survive
# Particulars: first compound 0.04 µM
Just a reminder that ties go to Criterion not met: only relative viability strictly below 0.8 counts as Criterion met.

compound="Cc1sc2c(c1C)C(c1ccc(Cl)cc1)=N[C@@H](CC(=O)OC(C)(C)C)c1nnc(C)n1-2 [JQ1] + CS(=O)(=O)CCNCc1ccc(-c2ccc3ncnc(Nc4ccc(OCc5cccc(F)c5)c(Cl)c4)c3c2)o1 [Lapatinib] (partner 2 µM)" target_entity=NCI-H1395 class="Criterion not met"

Query: For this compound, is relative viability lower than 0.8? Cc1sc2c(c1C)C(c1ccc(Cl)cc1)=N[C@@H](CC(=O)OC(C)(C)C)c1nnc(C)n1-2 [JQ1] + CCNC(=O)c1noc(-c2cc(C(C)C)c(O)cc2O)c1-c1ccc(CN2CCOCC2)cc1 [Luminespib] (partner 0.01 µM)
Result: Criterion met

Query: For this compound, is relative viability lower than 0.8? Cc1sc2c(c1C)C(c1ccc(Cl)cc1)=N[C@@H](CC(=O)OC(C)(C)C)c1nnc(C)n1-2 [JQ1] + Cc1nc(Nc2ncc(C(=O)Nc3c(C)cccc3Cl)s2)cc(N2CCN(CCO)CC2)n1 [Dasatinib] (partner 0.075 µM)
Result: Criterion met

Query: For this compound, is relative viability lower than 0.8? Cc1sc2c(c1C)C(c1ccc(Cl)cc1)=N[C@@H](CC(=O)OC(C)(C)C)c1nnc(C)n1-2 [JQ1] + COc1cc2c(Oc3ccc(NC(=O)C4(C(=O)Nc5ccc(F)cc5)CC4)cc3F)ccnc2cc1OCCCN1CCOCC1 [Foretinib] (partner 0.25 µM)
Result: Criterion met

Query: For this compound, is relative viability lower than 0.8? Cc1sc2c(c1C)C(c1ccc(Cl)cc1)=N[C@@H](CC(=O)OC(C)(C)C)c1nnc(C)n1-2 [JQ1] + CC(=O)Nc1cccc(-n2c(=O)n(C3CC3)c(=O)c3c(Nc4ccc(I)cc4F)n(C)c(=O)c(C)c32)c1 [Trametinib] (partner 0.02 µM)
Result: Criterion not met
